Biological target: MtaLonC (Meiothermus taiwanensis, UniProt C9DRU9)
Construct: full-length, 719 residues, C-terminal His tag (pET21a), expressed in E. coli BL21(DE3); homohexamer, monomer 79 kDa
Sequence (C9DRU9 1-719): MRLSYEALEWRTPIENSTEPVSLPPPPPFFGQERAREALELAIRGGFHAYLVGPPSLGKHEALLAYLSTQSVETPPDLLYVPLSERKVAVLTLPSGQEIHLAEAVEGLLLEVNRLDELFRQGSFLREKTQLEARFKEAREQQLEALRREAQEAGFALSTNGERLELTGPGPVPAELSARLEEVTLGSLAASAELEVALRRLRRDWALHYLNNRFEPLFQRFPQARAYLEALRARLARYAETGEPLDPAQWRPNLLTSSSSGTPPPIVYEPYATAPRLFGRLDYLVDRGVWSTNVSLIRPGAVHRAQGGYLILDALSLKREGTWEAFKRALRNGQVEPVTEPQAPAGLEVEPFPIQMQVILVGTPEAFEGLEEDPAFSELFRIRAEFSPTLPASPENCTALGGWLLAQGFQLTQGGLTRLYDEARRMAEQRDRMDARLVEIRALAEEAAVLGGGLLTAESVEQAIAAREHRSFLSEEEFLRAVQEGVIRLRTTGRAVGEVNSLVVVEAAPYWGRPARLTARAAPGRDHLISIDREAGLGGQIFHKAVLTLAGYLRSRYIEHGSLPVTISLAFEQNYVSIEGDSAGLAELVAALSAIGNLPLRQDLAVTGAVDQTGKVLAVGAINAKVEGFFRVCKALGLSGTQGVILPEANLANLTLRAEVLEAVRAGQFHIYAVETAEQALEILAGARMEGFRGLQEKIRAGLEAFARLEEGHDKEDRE
Assay: isothermal titration calorimetry, one-site fit
READOUT TYPE: pKd
# log scale: pKd equals minus log10 of the concentration in mol/L

Query string: // lookup pKd | system=MtaLonC (Meiothermus taiwanensis, UniProt C9DRU9) | key= `Nc1ncnc2c1ncn2[C@@H]1O[C@H](CO[P@](=O)(O)O[P@](=O)(O)O[P@@](=O)(O)S)[C@@H](O)[C@H]1O`
Result string: 5.11

Cited source: paper PMC3391209
